experiment: chemical genetic growth profiling, strain panel (AID 1159580);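 also: tested at 20 µM; growth read once vehicle control cultures reached saturation at 30 °C; 1 = growth at the plate median or of vehicle wells; lower values mean less growth of the strain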; conditions: S. cerevisiae deletion strains, growth OD, locus YNL183C, strain NPR1, stronger effect = lower value
Hit rate of the full screen: of about 5,500 compounds, about 2,000 (36%) were called active. Inconclusive results (about 18%) are left out. The list shows a part of the results.
Please respond with reported normalized growth for every item in the list.

Prompt: Please supply the value of reported normalized growth for the item C/C(=N/NC(N)=S)c1ccccn1
Completion: 0.895 (inactive)

Prompt: Please supply the value of reported normalized growth for the item CC1(C)S[C@@H]2[C@H](NC(=O)[C@H](NC(=O)N3CCNC3=O)c3ccccc3)C(=O)N2C1C(=O)O (some centres undefined)
Completion: 0.942 (inactive)

Prompt: Please supply the value of reported normalized growth for the item CCc1ccc(CCOc2ccc(CC3SC(=O)NC3=O)cc2)nc1 (centres undefined)
Completion: 0.963 (inactive)

Prompt: Please supply the value of reported normalized growth for the item Cc1cc(C(C)(C)CC(C)(C)C)ccc1OCCOCC[N+](C)(C)Cc1ccccc1
Completion: 0.00188 (active)
